- testedSystem: Histone deacetylase 1 (Homo sapiens, UniProt Q13547)
- Sequence (Q13547 whole entry): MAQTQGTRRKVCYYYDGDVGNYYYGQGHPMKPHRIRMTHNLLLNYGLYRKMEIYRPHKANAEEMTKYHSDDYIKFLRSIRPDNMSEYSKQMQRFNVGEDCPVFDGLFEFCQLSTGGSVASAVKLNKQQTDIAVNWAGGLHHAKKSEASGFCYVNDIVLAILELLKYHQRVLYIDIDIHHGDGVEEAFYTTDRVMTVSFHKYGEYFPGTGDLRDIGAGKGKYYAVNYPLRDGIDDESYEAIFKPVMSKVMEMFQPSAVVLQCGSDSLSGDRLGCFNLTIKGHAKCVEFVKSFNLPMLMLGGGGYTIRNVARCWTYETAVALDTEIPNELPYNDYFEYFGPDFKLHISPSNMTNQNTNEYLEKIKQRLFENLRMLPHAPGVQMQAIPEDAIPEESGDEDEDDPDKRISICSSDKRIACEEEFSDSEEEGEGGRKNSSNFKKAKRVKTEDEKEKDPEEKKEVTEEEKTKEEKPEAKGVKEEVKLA
readout: pIC50
Note: pIC50 values are expressed as the negative base-10 logarithm of concentration in M.

# recordSmiles, pIC50
records = [
    ("O=C(/C=C/c1ccc2c(c1)C(=O)N(Cc1ccc(-c3ccccc3)cc1)C2)NO", 6.66),
]

Now take the following molecule into account.
So the reported pIC50 for O=C(/C=C/c1ccc2c(c1)C(=O)N(Cc1ccc(-c3ccncc3)cc1)C2)NO , on Histone deacetylase 1 (Homo sapiens, UniProt Q13547), turned out to be 5.48

* * *

- Test system: PT-45
- testProtocol: Antiproliferative activity against human drug-resistant PT45 cells
- Type: functional, cell-based
readout: IC50

# recordSmiles, readout, val
measured = [
    ("O=C(/C=C/c1ccc2c(c1)C(=O)N(Cc1ccc(-c3cccnc3)cc1)C2)NO", "IC50", "200 nM"),
]

Now take the following compound into account.
So the reported IC50 for O=C(/C=C/c1ccc2c(c1)C(=O)N(Cc1ccc(-c3ccccc3)cc1)C2)NO , on PT-45, turned out to be 300 nM
